TEST_METHOD_NOTES: in vitro
DETAILS: African green monkey, half-maximal cytotoxic concentration (CC50)
MEASUREMENT_NAME: CC50 at 48 h

**Query** Could you tell me which CC50 at 48 h is on file for C=C1CCCC(C)(C)[C@@H]1Cc1c(O)cc2oc(-c3ccc(O)c(O)c3)cc(=O)c2c1O ?
**Result** ~783 µM
